- Test system: Cullin-3 (CUL3) neddylation
- EXPERIMENT_SUMMARY: AlphaLISA assay for Cullin-3 (CUL3) neddylation in TF 1 cells
- Type: cell-based
- CONDITIONS_USED: Homo sapiens, TF-1, 3 h, 3 hours treatment
- Procedure: An AiphaLISA assay was performed to evaluate the ability of the compounds to suppress neddylation, which is downstream from DCN-1 and DCN-2. A stronger inhibition of DCN-1 and DCN-2 is expected to result in a suppression of neddylation as shown by a lower AlphaLISA signal. […] The AlphaLISA signal was then read on a VICTOR Nivo Multimode Microplate Reader (Revvity, Hopkinton, MA). […]
pIC50: −log10 of the molar value.
PARAMETER: pIC50

State the recorded pIC50 for this entry: C=C(C(=O)OCC)c1nn(-c2ccccc2)c2c1[C@H](c1ccc(F)cc1)[C@H](NC(=O)c1cccc(C(F)(F)F)c1)C(=O)N2CC (racemic) [Compound I-35]
6.00 to 7.00

Likewise for CCN1C(=O)[C@@H](NC(=O)c2cccc(C(F)(F)F)c2)[C@@H](c2ccc(F)cc2)c2c(C(=O)N3[C@H](C#N)C[C@H]4C[C@H]43)nn([C@H]3CCOC3)c21 (relative stereo) [Compound I-630] ?
≥ 7.00

Would you kindly repeat that for CCN1C(=O)[C@@H](NC(=O)c2cccc(C(F)(F)F)c2)[C@@H](c2ccc(F)cc2)c2c(CNC(=O)[C@H](C)Cl)nn(-c3ccccc3)c21 (racemic) [Compound I-179] ?
6.00 to 7.00

And for CCN1C(=O)[C@H](NC(=O)c2cccc(C(F)(F)F)c2)[C@H](C2CC2)c2c(C(=O)N3CCC[C@H]3C#N)nn(C3CCOCC3)c21 [Compound I-666] ?
< 6.00

Input C=CC(=O)N[C@H](C)c1nn(-c2ccccc2)c2c1[C@@H](c1ccc(F)cc1)[C@H](NC(=O)c1nccc(C(F)(F)F)n1)C(=O)N2CC [Compound I-533]
6.00 to 7.00

Next: C=C(CN1CCC(C)(O)C1)C(=O)NCc1nn(-c2ccccc2)c2c1[C@H](c1ccc(F)cc1)[C@H](NC(=O)c1cccc(C(F)(F)F)c1)C(=O)N2CC (stereo partly drawn) [Compound I-25]
≥ 7.00

Another compound to look at: CCN1C(=O)[C@@H](NC(=O)c2cccc(C(F)(F)F)c2)[C@@H](c2ccc(F)cc2)c2c(C(=O)N(C)CC#N)nn(C3CCOCC3)c21 [Compound I-366]
≥ 7.00

Likewise for CCN1C(=O)[C@@H](NC(=O)c2cccc(C(F)(F)F)c2)[C@@H](c2ccc(F)cc2)c2c([C@@H](CCC(O)CO)NC#N)nn(-c3ccccc3)c21 (stereo partly drawn) [Compound I-497] ?
≥ 7.00

How about CCN1C(=O)[C@@H](NC(=O)c2cccc(C(F)(F)F)c2)[C@@H](c2ccc(F)cc2)c2c(C(=O)N(C)[C@H](C#N)CCN(C)C3COC3)nn(C3CCOCC3)c21 [Compound I-470] ?
≥ 7.00

Entry to check: CCN1C(=O)[C@@H](NC(=O)c2cccc(C(F)(F)F)c2)[C@@H](c2ccc(F)cc2)c2c([C@@H](C)NC(N)=O)nn(-c3ccccc3)c21 [Compound I-499]
6.00 to 7.00

Moving on to CCN1C(=O)[C@@H](NC(=O)c2cccc(C(F)(F)F)c2)[C@@H](c2ccc(F)cc2)c2c(C(=O)N(CC#N)C3CC3)nn(-c3ccccc3)c21 (stereo in doubt) [Compound I-284]
≥ 7.00

Quick one: CCN1C(=O)[C@@H](NC(=O)c2cccc(C(F)(F)F)c2)[C@@H](c2ccc(F)cc2)c2c(C(=O)N3CCNC[C@@H]3C#N)nn(-c3ccccc3)c21 [Compound I-280]
≥ 7.00

Now consider C#C[C@@H]1CCCN1C(=O)c1nn(C2CCOCC2)c2c1[C@H](C1CC1)[C@H](NC(=O)c1cccc(C(F)(F)F)c1)C(=O)N2CC [Compound I-594] and answer again.
< 6.00

Moving on to the next compound: CCN1C(=O)[C@@H](NC(=O)c2cccc(C(F)(F)F)c2)[C@@H](c2ccc(F)cc2)c2c([C@@H](C)N(C#N)C(=O)OCCN3CCN(C)CC3)nn(-c3ccccc3)c21 [Compound I-536]
6.00 to 7.00

Note, next up: CCN1C(=O)[C@@H](NC(=O)c2cccc(C(F)(F)F)c2)[C@@H](c2ccc(F)cc2)c2c(C(=O)N(CC#N)CCO)nn(-c3ccccc3)c21 (stereo in doubt) [Compound I-286]
≥ 7.00

Continue with CCN1C(=O)[C@@H](NC(=O)c2cccc(C(F)(F)F)c2)[C@@H](C2CC2)c2c(C(=O)N3[C@@H](C#N)C[C@@H]4C[C@@H]43)nn(C3CCOCC3)c21 [Compound I-703]
< 6.00

// query: CCN1C(=O)[C@@H](NC(=O)c2cccc(C(F)(F)F)c2)[C@@H](c2ccc(F)cc2)c2c(CCN(C#N)CCO)nn(-c3ccccc3)c21 [Compound I-538]
6.00 to 7.00

Next record, please: CCN1C(=O)[C@@H](NC(=O)c2c(Cl)ccc(OC)c2F)[C@@H](C2CC2)c2c(C(=O)N3[C@H](C#N)C[C@H]4C[C@H]43)nn(C3CCOCC3)c21 [Compound I-697]
< 6.00

Please do the same for CCN1C(=O)[C@@H](NC(=O)c2cccc(C(F)(F)F)c2)[C@@H](c2ccc(F)cc2)c2c(C(=O)N3CCC[C@H]3C#N)nn(C3CC3)c21 [Compound I-354] as well.
≥ 7.00

Request: CCN1C(=O)[C@H](NC(=O)c2cccc(C(F)(F)F)c2)[C@H](c2ccc(F)cc2)c2c(CN(C)C#N)nn(-c3ccccc3)c21 [Compound I-20]
< 6.00

Item: CCN1C(=O)[C@@H](NC(=O)c2cccc(C(F)(F)F)c2)[C@@H](c2ccc(F)cc2)c2c(C(=O)N3CC[C@H]3C#N)nn(-c3ccccc3)c21 [Compound I-275]
≥ 7.00

###

Hi there, I'd appreciate the recorded IC50 for every entry that follows.
- System: Cullin-3 (CUL3) neddylation
- EXPERIMENT_SUMMARY: AlphaLISA assay for Cullin-3 (CUL3) neddylation in TF 1 cells
- Format: cell-based
- CONDITIONS_USED: Homo sapiens, TF-1, 3 h, 3 hours treatment

Returns the measured IC50 for the input compound. Input: CCN1C(=O)[C@@H](NC(=O)c2cccc(C(F)(F)F)c2)[C@@H](c2ccc(F)cc2)c2c(C(=O)N(C)[C@@H](C#N)CCN3CC4CCC(C3)O4)nn(-c3ccccc3)c21 (mixture of isomers)
≤ 100 nM

Ok, now CCN1C(=O)[C@@H](NC(=O)c2ccn(C(F)(F)F)n2)[C@@H](c2ccc(F)cc2)c2c(C(=O)N3CCNC[C@H]3C#N)nn(-c3ccccc3)c21
≤ 100 nM

Ok, now CCN1C(=O)[C@@H](NC(=O)c2ccc3cn[nH]c3c2)[C@@H](C2CC2)c2c(C(=O)N3[C@H](C#N)C[C@H]4C[C@H]43)nn(C3CCOCC3)c21
> 1000 nM

Please do the same for C=C(CN1C[C@@H]2C[C@H]1CO2)C(=O)NCc1nn(-c2ccccc2)c2c1[C@H](c1ccc(F)cc1)[C@H](NC(=O)c1cccc(C(F)(F)F)c1)C(=O)N2CC (mixture of isomers) as well.
≤ 100 nM

What about CCN1C(=O)[C@H](NC(=O)c2cccc(C(F)(F)F)c2)[C@H](c2ccc(F)cc2)c2c(C(=O)N3CCC[C@H]3C#N)nn(-c3cccc(OCCN4CC5(COC5)C4)c3)c21 ?
> 1000 nM

Could you do the same for CCN1C(=O)[C@H](NC(=O)c2cccc(C(F)(F)F)c2)[C@H](c2ccc(F)cc2)c2c(C(=O)N3CCC[C@H]3C#N)nn(-c3cccc(OCCCN4CCN(C5COC5)CC4)c3)c21 , please?
> 1000 nM

What about this compound? CCN1C(=O)[C@H](NC(=O)c2cccc(C(F)(F)F)c2)[C@@H](c2ccc(F)cc2)c2c(CN3C(=O)CC[C@H]3C#N)nn(-c3ccccc3)c21
> 1000 nM

And for CCN1C(=O)[C@@H](NC(=O)c2cnc(C)cc2Cl)[C@@H](C2CC2)c2c(C(=O)N3[C@H](C#N)C[C@H]4C[C@H]43)nn(C3CCOCC3)c21 ?
> 1000 nM

Further, for CCN1C(=O)[C@@H](NC(=O)c2cccc(C(F)(F)F)c2)[C@@H](c2ccc(F)cc2)c2c(C(=O)N(CC#N)CCC(=O)OC)nn(-c3ccccc3)c21 (stereo in doubt) ?
≤ 100 nM

How about this compound: CCN1C(=O)[C@H](NC(=O)c2cccc(C(F)(F)F)c2)[C@H](c2ccc(F)cc2)c2c(C(=O)N3CCC[C@H]3C#N)nn(-c3cccc(OCCCN(C)C4COC4)c3)c21
> 1000 nM
